Attribute: % Block (100 nM) 0.03 Hz
# target: N-type calcium channels (α1B+α2δ+β1b cDNA subunits) (Rattus norvegicus, UniProt Q02294)
# Construct: expressed in transfected cells
# Sequence (Q02294 whole entry): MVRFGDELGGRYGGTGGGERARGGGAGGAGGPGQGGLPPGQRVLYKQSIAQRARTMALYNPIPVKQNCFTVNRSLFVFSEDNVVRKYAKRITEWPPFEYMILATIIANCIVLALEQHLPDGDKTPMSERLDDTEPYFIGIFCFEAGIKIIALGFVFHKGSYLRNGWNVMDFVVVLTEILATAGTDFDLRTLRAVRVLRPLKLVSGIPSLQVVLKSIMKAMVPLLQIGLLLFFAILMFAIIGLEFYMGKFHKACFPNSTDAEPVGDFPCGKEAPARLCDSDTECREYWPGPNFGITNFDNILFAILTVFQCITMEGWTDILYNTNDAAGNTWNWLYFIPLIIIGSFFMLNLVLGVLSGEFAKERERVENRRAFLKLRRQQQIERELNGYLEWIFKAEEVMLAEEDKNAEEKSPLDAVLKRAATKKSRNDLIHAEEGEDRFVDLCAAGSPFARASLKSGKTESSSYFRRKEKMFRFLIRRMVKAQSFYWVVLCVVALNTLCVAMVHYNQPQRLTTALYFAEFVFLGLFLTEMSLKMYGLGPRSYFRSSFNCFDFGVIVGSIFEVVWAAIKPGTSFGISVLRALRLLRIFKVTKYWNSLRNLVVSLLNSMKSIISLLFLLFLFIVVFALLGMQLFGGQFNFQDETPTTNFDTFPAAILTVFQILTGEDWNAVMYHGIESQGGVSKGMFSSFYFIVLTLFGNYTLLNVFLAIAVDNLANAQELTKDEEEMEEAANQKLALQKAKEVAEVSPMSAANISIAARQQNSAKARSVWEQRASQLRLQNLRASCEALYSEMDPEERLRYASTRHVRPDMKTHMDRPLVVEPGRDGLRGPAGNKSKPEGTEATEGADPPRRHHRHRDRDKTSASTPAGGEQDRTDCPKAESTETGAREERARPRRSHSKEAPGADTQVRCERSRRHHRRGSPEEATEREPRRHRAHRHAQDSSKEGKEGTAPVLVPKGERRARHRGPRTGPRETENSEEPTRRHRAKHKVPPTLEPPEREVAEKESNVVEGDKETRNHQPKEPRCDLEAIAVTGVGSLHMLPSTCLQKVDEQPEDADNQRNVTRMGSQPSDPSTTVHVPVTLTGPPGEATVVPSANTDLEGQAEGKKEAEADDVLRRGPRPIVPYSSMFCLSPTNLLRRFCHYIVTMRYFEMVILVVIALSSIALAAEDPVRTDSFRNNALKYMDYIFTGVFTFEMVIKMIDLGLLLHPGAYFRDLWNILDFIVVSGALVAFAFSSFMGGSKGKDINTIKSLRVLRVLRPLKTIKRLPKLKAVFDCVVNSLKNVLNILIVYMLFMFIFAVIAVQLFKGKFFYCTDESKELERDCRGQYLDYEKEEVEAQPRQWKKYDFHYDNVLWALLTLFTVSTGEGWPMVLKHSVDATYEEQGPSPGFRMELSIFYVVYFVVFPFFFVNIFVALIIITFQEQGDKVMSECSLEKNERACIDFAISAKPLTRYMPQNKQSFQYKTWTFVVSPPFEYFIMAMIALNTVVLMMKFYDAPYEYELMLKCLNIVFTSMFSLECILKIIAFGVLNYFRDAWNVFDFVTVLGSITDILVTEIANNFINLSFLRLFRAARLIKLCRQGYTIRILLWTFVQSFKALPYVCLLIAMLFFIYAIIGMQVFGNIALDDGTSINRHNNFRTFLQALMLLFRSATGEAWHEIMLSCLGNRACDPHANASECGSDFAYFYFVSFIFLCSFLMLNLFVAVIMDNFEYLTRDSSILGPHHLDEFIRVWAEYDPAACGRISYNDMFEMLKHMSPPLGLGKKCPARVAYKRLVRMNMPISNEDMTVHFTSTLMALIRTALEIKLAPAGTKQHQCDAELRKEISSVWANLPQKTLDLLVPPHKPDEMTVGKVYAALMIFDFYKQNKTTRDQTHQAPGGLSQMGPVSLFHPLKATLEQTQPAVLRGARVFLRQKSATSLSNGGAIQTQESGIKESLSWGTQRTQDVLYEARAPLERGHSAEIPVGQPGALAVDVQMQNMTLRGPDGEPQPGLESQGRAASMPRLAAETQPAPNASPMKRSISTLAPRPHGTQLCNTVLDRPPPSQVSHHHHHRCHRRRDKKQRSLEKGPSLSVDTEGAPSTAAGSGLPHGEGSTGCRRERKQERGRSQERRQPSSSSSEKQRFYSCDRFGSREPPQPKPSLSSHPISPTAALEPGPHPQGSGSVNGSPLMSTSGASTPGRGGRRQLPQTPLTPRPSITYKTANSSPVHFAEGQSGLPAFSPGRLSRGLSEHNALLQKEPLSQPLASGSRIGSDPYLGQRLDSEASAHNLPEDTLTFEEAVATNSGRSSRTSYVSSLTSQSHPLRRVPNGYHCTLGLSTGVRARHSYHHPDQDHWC
# Sequence (P54290 25-944 partner limits assumed): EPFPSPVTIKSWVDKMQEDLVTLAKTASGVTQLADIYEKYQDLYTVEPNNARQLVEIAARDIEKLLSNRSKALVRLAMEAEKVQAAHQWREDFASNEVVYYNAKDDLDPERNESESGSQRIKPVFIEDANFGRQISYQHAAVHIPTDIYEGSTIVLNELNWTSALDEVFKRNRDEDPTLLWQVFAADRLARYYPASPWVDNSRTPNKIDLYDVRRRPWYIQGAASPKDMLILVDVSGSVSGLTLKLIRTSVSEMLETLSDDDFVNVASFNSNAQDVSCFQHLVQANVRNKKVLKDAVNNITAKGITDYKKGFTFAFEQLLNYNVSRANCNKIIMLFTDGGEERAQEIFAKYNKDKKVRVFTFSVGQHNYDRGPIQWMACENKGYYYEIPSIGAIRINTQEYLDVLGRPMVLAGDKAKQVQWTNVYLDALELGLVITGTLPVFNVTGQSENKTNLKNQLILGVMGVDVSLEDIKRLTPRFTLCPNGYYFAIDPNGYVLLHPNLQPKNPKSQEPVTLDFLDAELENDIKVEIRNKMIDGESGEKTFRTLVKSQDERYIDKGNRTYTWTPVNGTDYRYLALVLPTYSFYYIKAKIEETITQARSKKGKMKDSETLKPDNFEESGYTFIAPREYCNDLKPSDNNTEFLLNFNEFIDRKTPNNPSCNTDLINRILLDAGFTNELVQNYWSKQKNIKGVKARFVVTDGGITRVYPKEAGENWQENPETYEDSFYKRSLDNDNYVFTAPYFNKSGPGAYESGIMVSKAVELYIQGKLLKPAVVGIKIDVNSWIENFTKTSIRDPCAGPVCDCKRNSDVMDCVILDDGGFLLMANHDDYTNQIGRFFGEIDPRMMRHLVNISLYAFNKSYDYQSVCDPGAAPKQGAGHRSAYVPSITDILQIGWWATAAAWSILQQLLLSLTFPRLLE
# Sequence (P54290 945-1091 partner limits assumed): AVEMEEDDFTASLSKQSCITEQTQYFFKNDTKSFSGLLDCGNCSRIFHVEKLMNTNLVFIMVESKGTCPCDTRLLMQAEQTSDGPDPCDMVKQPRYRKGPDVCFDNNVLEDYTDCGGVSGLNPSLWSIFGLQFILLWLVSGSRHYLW
# Sequence (P54283 whole entry partner): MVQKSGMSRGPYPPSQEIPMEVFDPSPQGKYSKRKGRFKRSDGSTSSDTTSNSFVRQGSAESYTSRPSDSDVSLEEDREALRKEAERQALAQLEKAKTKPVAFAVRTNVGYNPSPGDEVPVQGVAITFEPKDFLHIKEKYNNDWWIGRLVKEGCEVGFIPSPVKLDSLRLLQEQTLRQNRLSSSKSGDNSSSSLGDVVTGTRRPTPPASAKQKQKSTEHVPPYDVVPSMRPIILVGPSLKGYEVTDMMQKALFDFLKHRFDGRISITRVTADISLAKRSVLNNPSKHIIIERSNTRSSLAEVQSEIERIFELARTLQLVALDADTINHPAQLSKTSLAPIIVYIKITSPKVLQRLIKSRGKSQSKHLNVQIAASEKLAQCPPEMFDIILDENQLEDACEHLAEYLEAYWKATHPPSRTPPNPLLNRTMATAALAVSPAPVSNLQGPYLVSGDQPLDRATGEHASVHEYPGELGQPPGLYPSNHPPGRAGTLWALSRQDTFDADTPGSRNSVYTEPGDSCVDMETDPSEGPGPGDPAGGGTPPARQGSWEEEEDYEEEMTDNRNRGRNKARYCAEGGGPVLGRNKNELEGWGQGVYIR
# assay_overview: Whole cell patch clamp, tonic and frequency dependent block, N-type channels in HEK 293 (Example 5)
# Type: cell-based
# conditions_used: α1B (N-type), 100 nM, 0.03 Hz (tonic block)
quantity_name: % Block (100 nM) 0.03 Hz (%)

[[record]]
compound = "O=C(CCCCC(c1ccccc1)c1ccccc1)N1CCN(C/C=C/c2ccccc2)CC1 [MC-34D]"
units_text = "%"
endpoint_result = 47

[[record]]
compound = "CC(=O)Nc1ccc(/C=C/C(=O)N2CCN(C(=O)CCCCC(c3ccccc3)c3ccccc3)CC2)cc1"
units_text = "%"
endpoint_result = 14

[[record]]
compound = "COc1cc(C(=O)N2CCN(C(c3ccc(F)cc3)c3ccc(F)cc3)CC2)cc(OC)c1OC"
units_text = "%"
endpoint_result = 29

[[record]]
compound = "COc1ccc(/C=C/C(=O)N2CCN(C(=O)CCCCC(c3ccccc3)c3ccccc3)CC2)cc1 [SH-123A]"
units_text = "%"
endpoint_result = 19

[[record]]
compound = "O=C(CC(c1ccccc1)c1ccccc1)N1CCN(C(c2ccccc2)c2ccccc2)CC1"
units_text = "%"
endpoint_result = 34

[[record]]
compound = "COc1cc(CN2CCN(CCCCCC(c3ccc(F)cc3)c3ccc(F)cc3)CC2)cc(OC)c1OC"
units_text = "%"
endpoint_result = 50


====

# target: P/Q-type channels (α1A+α2δ+β1b cDNA subunits) (UniProt P54282)
# assay_overview: Whole cell patch clamp, tonic and frequency dependent block, P/Q-type channels in HEK 293 (Example 5)
# Format: cell-based
# conditions_used: α1A (P/Q-type), 0.03 Hz; read-out: Estimated IC50 (μM) 0.03 Hz
Attribute: IC50
quantity_name: IC50

[[record]]
molecule = "COc1ccc(CN2CCN(C(c3ccc(F)cc3)c3ccc(F)cc3)CC2)c(OC)c1OC [39-36-1 Lomerizine, Lomerizine, reference compound]"
endpoint_result = "0.46 µM"

[[record]]
molecule = "CC(=O)Nc1ccc(/C=C/C(=O)N2CCN(C(=O)CCCCC(c3ccccc3)c3ccccc3)CC2)cc1 [SH-136]"
endpoint_result = "0.52 µM"

[[record]]
molecule = "Nc1ccc(/C=C/C(=O)N2CCN(C(=O)CCCCC(c3ccccc3)c3ccccc3)CC2)cc1 [SH-134]"
endpoint_result = "0.45 µM"

[[record]]
molecule = "COc1cc(CN2CCN(CCCCCC(c3ccc(F)cc3)c3ccc(F)cc3)CC2)cc(OC)c1OC [39-45-3]"
endpoint_result = "0.41 µM"


====

Attribute: % Block (100 nM) 0.2 Hz
# target: N-type calcium channels (α1B+α2δ+β1b cDNA subunits) (Rattus norvegicus)
# Construct: expressed in transfected cells
# assay_overview: Whole cell patch clamp, tonic and frequency dependent block, N-type channels in HEK 293 (Example 5)
# Type: cell-based
# conditions_used: α1B (N-type), 100 nM, 0.2 Hz (frequency dependent block)
quantity_name: % Block (100 nM) 0.2 Hz (%)

[[record]]
compound = "COc1ccc(CN2CCN(C(c3ccc(F)cc3)c3ccc(F)cc3)CC2)c(OC)c1OC [39-36-1 Lomerizine, Lomerizine, reference compound]"
endpoint_result = 54

[[record]]
compound = "COc1cc(CN2CCN(CCCCCC(c3ccc(F)cc3)c3ccc(F)cc3)CC2)cc(OC)c1OC [39-45-3]"
endpoint_result = 79

[[record]]
compound = "O=C(CCCCC(c1ccccc1)c1ccccc1)N1CCN(C/C=C/c2ccccc2)CC1 [MC-34D]"
endpoint_result = 73

[[record]]
compound = "O=C(/C=C/c1ccc2c(c1)OCO2)N1CCN(C(=O)CCCCC(c2ccccc2)c2ccccc2)CC1 [SH-123B]"
endpoint_result = 45

[[record]]
compound = "COc1ccc(/C=C/C(=O)N2CCN(C(=O)CCCCC(c3ccccc3)c3ccccc3)CC2)cc1 [SH-123A]"
endpoint_result = 55

[[record]]
compound = "CC(=O)Nc1ccc(/C=C/C(=O)N2CCN(C(=O)CCCCC(c3ccccc3)c3ccccc3)CC2)cc1 [SH-136]"
endpoint_result = 44

[[record]]
compound = "COc1cc(C(=O)N2CCN(C(c3ccc(F)cc3)c3ccc(F)cc3)CC2)cc(OC)c1OC [39-36-2]"
endpoint_result = 60

[[record]]
compound = "Nc1ccc(/C=C/C(=O)N2CCN(C(=O)CCCCC(c3ccccc3)c3ccccc3)CC2)cc1 [SH-134]"
endpoint_result = 41

[[record]]
compound = "O=C(CC(c1ccccc1)c1ccccc1)N1CCN(C(c2ccccc2)c2ccccc2)CC1 [39-1-B4]"
endpoint_result = 72

[[record]]
compound = "O=C(CCCCC(c1ccccc1)c1ccccc1)N1CCC(NCC2CCCCC2)CC1 [JM-G-10]"
endpoint_result = 63

